From: PubChem BioAssay AID463173

# Tested on: DeltatarO mutant
# experimentSummary: S. aureus survival, RN4220 and DeltatarO strains – OD600, teichoic acid synthesis inhibitors, primary screen (AID 463173)
# testContext: S. aureus RN4220 wild type/DeltatarO growth, OD600, 18 h, screened at 18.75 µg/mL (by protocol)
The whole screen tested about 52,000 compounds, of which about 4,300 (8.3%) were called active. Cut-off read from the data, not from the text of the source: active = survival mostly below about 52% (no sharp cut-off); inactive = mostly above about 56%. Shown is part of a subset that was picked to be rich in actives.
Pick one and only one: active, inactive

Completed entries (count: 3):
>>> print(df.to_string())
                                   compound        targetdesc  classname
0  Cc1ccc2oc(C(=O)Nc3ccc(S(=O)(=O)Nc4ncccn4)cc3)cc(=O)c2c1  DeltatarO mutant   inactive
1  COc1ccc(CNC(=O)CN2C(=O)CSc3ccc(S(=O)(=O)N4CCOCC4)cc32)c(OC)c1  DeltatarO mutant   inactive
2  CC1=C(c2ccc(C)c(C)c2)S(=O)(=O)N=C1N1CCC(C(=O)NCc2ccccc2C)CC1  DeltatarO mutant   inactive

Per the records of this test, what outcome belongs to CCc1ccc(C2c3c(n[nH]c3C)C(=O)N2c2ccc(C)cc2)cc1 (stereo not given) ?
active

Per the records of this test, what outcome belongs to Cc1ccc(-c2nc3nc(C)cc(Nc4ccccc4O)n3n2)cc1 ?
inactive
